# Test system: SN12C renal
# Assay Summary: NCI-60 one-dose screen, 48 h (100 = growth as untreated, 0 = no growth, -100 = all killed)
# Condition: 10 µM unless noted
This is part of a sample that, as a whole, favours compounds with a hit. Of some 83,000 tested, about 20% had one in any assay. Calls of active or inactive are those of the source. The calls were made as follows: active = growth percent below 10; inactive = the rest.
Readout Type: growth

Field: example entries. Status: answers known.
compound=C[N+](C)(C)c1ncnc2[n-]cnc12 readout_type=growth val="72.3% (inactive)"
compound=O=C(Nc1cccc2cccnc12)c1cc(C(=O)c2ccc(Cl)cc2)n2ccc(-c3ccncc3)cc12 readout_type=growth val="101% (inactive)"
compound=Cc1ccc(N)c(O)c1 readout_type=growth val="115% (inactive)"
compound=CC(=O)CC(=O)SC1=NCCS1 readout_type=growth val="108% (inactive)"
compound=CN(C)c1ccc(N=Nc2ccc3ccccc3c2)cc1 readout_type=growth val="87% (inactive)"
compound=CC(=O)OC[C@]12CC[C@@H]([C@@H](C)C(N)=O)[C@@H]1[C@H]1CC[C@@H]3[C@@]4(C)CC[C@H](OC(C)=O)C(C)(C)[C@@H]4CC[C@@]3(C)[C@]1(C)CC2 readout_type=growth val="-91.6% [100 µM] (active)"
compound=COc1ccc(/C=C/C=C\C(=O)c2ccc(-n3ccnc3)cc2)cc1 readout_type=growth val="90.7% (inactive)"
compound=N#C/C(C(=O)c1ccccc1)=C1/C(=O)Nc2ccccc21 readout_type=growth val="93.1% (inactive)"
compound=CCNc1cc2c(cc1Br)-c1ccccc1C2=O readout_type=growth val="94.5% (inactive)"
compound=COCc1nc2ccccc2[nH]1 readout_type=growth val="104% (inactive)"

Problem: State the recorded growth for this entry: C#CCC(C(=O)OCC)C(=O)OCC
Solution: 109% (inactive)

Problem: State the recorded growth for this entry: CC[C@]12C=CCN3CC[C@@]4(c5ccc(OC)cc5N(C)[C@H]4[C@@](O)(C(=O)OC)[C@@H]1OC(=O)CCC(=O)O[C@H]1CC[C@H]4[C@@H]5CCC6=CC(=O)CC[C@@H]6[C@H]5CC[C@]14C)[C@@H]32
Solution: 7.65% [100 µM] (active)

Problem: State the recorded growth for this entry: Cc1ccc(NC(=O)N[C@@H](Cc2cc(F)cc(F)c2)C(=O)N[C@@H]2C(=O)N3CCC[C@H]3C(=O)N3CCOC[C@H]3C(=O)N[C@@H](C)C(=O)N3C[C@H](C)C[C@H]3C(=O)O[C@H]2C)cc1
Solution: 18.4% (inactive)

Problem: State the recorded growth for this entry: O=c1[nH]cnc2c1ccn2C1OC(CO)C(O)C1O (stereo not given)
Solution: 63.1% (inactive)

Problem: State the recorded growth for this entry: Cc1cccc(C[C@H](NC(=O)Nc2ccc(C)cc2F)C(=O)N[C@@H]2C(=O)N3C[C@H](O)C[C@H]3C(=O)N3CCN(C)C[C@H]3C(=O)N[C@@H](C)C(=O)N3C[C@H](C)C[C@H]3C(=O)O[C@H]2C)c1
Solution: 21.5% (inactive)

====

# Tested on: NCI/ADR-RES ovarian
# Assay Summary: NCI-60 one-dose screen, 48 h (100 = growth as untreated, 0 = no growth, -100 = all killed)
# Condition: 10 µM unless noted
Compounds without any hit were thinned out: in the full panel of roughly 83,000, 20% have a hit. Active and inactive are the calls of the source. The calls were made as follows: active = growth percent below 10; inactive = the rest.
Recorded growth for the following molecules

molecule=CCOc1cc(/C=N\NC(=O)N/N=C/c2ccc(O)c(OCC)c2)ccc1O tested_system="NCI/ADR-RES ovarian" readout_type=growth val="51.6% (inactive)"
molecule=Cc1cccc(C[C@H](NC(=O)Nc2ccc(Cl)cc2F)C(=O)N[C@@H]2C(=O)N3C[C@H](O)C[C@H]3C(=O)N3CCN(C)C[C@H]3C(=O)N[C@@H](C)C(=O)N3C[C@H](C)C[C@H]3C(=O)O[C@H]2C)c1 tested_system="NCI/ADR-RES ovarian" readout_type=growth val="107% (inactive)"
molecule=O=C(OCc1ccc2c(Cl)cc(Cl)c(O)c2n1)N1CCN(C(=O)c2cc3cc(F)ccc3[nH]2)CC1 tested_system="NCI/ADR-RES ovarian" readout_type=growth val="2.35% (active)"
molecule=O=C(COc1cccc(/C=C2\Oc3ccccc3C2=O)c1)c1ccc([N+](=O)[O-])cc1 tested_system="NCI/ADR-RES ovarian" readout_type=growth val="79.1% (inactive)"
molecule=C=C(C)[C@@H]1CC[C@]2(COCCCN)CC[C@]3(C)[C@H](CC[C@@H]4[C@@](C)(CCCNCCCN)[C@H](C(=C)C)CC[C@]43C)[C@@H]12 tested_system="NCI/ADR-RES ovarian" readout_type=growth val="-53.6% [100 µM] (active)"
molecule=CC1(C)CC[C@]2(C(N)=O)CC[C@]3(C)C(=CC[C@@H]4[C@@]5(C)C/C(=C/c6cccnc6)C(=O)C(C)(C)[C@@H]5CC[C@]43C)[C@@H]2C1 tested_system="NCI/ADR-RES ovarian" readout_type=growth val="-25.7% [100 µM] (active)"

Turning to the following molecule.
Problem: State the recorded growth for this entry: CCN(CC)c1ccc2cc(C(Nc3ccc(C)cc3)c3nnnn3C(C)(C)C)c(=O)oc2c1 (configuration not stated)
Solution: 90.6% (inactive)
